This collection of values is drawn from ChEMBL document CHEMBL1961873.

Biological target: cGMP-dependent protein kinase 2 (Homo sapiens) (UniProt Q13237);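 further: mean inhibition of PRKG2 from the GSK PKIS screen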
Sequence (Q13237 whole entry): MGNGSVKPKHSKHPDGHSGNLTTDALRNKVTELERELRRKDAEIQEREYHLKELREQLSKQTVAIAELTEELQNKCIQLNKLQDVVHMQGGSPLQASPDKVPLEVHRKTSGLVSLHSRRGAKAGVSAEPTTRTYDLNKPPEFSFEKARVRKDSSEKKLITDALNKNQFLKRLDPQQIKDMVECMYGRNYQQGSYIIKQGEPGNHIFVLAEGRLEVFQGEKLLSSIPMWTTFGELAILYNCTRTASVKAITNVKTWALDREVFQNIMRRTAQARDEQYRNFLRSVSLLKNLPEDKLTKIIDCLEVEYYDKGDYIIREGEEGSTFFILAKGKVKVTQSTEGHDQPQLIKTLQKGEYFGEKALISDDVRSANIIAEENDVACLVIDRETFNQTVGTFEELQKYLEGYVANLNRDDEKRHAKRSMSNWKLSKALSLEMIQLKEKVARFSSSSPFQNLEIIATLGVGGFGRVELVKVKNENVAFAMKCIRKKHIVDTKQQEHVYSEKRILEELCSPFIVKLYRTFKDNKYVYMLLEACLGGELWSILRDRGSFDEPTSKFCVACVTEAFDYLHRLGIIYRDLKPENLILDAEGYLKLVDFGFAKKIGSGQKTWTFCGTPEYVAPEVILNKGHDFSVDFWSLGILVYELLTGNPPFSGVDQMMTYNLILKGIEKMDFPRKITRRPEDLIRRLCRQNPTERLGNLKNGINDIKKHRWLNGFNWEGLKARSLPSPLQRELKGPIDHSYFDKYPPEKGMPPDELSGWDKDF
Details: at 1 µM
Lab note: compare inhibition against 4%. Equal or greater, write met. Smaller, write not met.

Check out these entries, answers already filled in.
COc1cc2ncn(-c3cc(OCc4ccccc4Cl)c(C(N)=O)s3)c2cc1OC: not met
O=C1NC(=O)C(c2cccc(Cl)c2)=C1Nc1ccc(O)c(Cl)c1: met
CN(C)c1cc2c(Nc3ccc4nc(Cc5ccccc5)[nH]c4c3)ncnc2cn1: met

Please look at the following compound next.
Hi team, for `CCN1CCC(CC(=O)Nc2n[nH]c3nc(-c4cccs4)c(Br)cc23)CC1` , is the recorded inhibition at or above 4%?
not met
